Each item that follows carries a reported IC50.
Test system: SUDHL5
Assay: Induction of cytotoxicity, SUDHL5 (Assay 6)
Recorded conditions: Homo sapiens, SU-DHL-5, 5 h, read-out: IC50 Cytotox SUDHL5 [M] (median), SUDHL5 cells, 5 h, CellTiter-Glo
Number in M, nothing else.

# Compound, Value observed
records = [
    ("CCc1c2c(nn1C)CN(C)CCCCn1c(C(=O)O)c(CCCOc3cccc4c3CCC4)c3ccc(F)c-2c31 (racemic)", "3.6e-07"),
    ("Cc1c2c(nn1C)COC/C=C\\Cn1c(C(=O)O)c(CCCOc3cccc4ccccc34)c3ccc(F)c-2c31 (racemic)", "1.2e-06"),
    ("CCc1nn(C)c2c1-c1c(F)ccc3c(CCCOc4cc(C)c(Cl)c(C)c4)c(C(=O)O)n(c13)CCCCOC2 (racemic)", "3.1e-06"),
    ("Cc1c2c(nn1C)COCCCCn1c(C(=O)O)c(CCCOc3cccc4c3CCCC4)c3ccc(F)c-2c31 (racemic)", "8.8e-07"),
    ("Cc1nn(C)c2c1-c1c(F)ccc3c(CCCOc4cccc5ccccc45)c(C(=O)O)n(c13)CCCCOC2 (racemic)", "1.8e-06"),
]

Request: // query IC50 value for entry Cc1c2c(nn1C)C[N+](C)(C)CCCCn1c(C(=O)O)c(CCCOc3cccc4ccccc34)c3ccc(F)c-2c31
Response: 1.6e-05

Request: Try this compound next: CCc1nn(C)c2c1-c1c(F)ccc3c(CCCOc4cccc5c4CCC5)c(C(=O)O)n(c13)CCCCOC2 (racemic)
Response: 1.9e-06

###

System: SUDHL10
Assay: Induction of cytotoxicity, SUDHL10 (Assay 6)
Recorded conditions: read-out: IC50 Cytotox SUDHL10 [M] (median), SUDHL10 cells, 5 h, CellTiter-Glo
Each item that follows carries a reported IC50.

Recorded results for 3 molecules are shown here.
# Molecule, IC50
rows = [
    ("CCc1nn(C)c2c1-c1c(F)ccc3c(CCCOc4ccc(F)c5ccccc45)c(C(=O)O)n(c13)CCCCOC2 (single isomer, unassigned; enantiomer 1) [Example 42]", "9.6e-06 M"),
    ("CCc1c2c(nn1C)COCCCCn1c(C(=O)O)c(CCCOc3cccc4cc(F)ccc34)c3ccc(F)c-2c31 (single isomer, unassigned; enantiomer 2) [Example 25]", "2.2e-05 M"),
    ("CCc1nn(C)c2c1-c1c(F)ccc3c(CCCOc4cccc5cc(F)ccc45)c(C(=O)O)n(c13)CCCCOC2 (single isomer, unassigned; enantiomer 2) [Example 40]", "> 2.5e-05 M"),
]

We next turn to a different molecule, shown below.
Request: // query IC50 value for entry Cc1c2c(nn1C)COCCCCn1c(C(=O)O)c(CCCOc3cccc4cc(F)ccc34)c3ccc(F)c-2c31 (single isomer, unassigned; enantiomer 2) [Example 14]
Response: 1.2e-05 M

###

Measured target: MCL-1 (Homo sapiens (Human), UniProt Q07820, K194A/K197A/R201A)
Sequence (Q07820 whole entry K194A/K197A/R201A, looked up): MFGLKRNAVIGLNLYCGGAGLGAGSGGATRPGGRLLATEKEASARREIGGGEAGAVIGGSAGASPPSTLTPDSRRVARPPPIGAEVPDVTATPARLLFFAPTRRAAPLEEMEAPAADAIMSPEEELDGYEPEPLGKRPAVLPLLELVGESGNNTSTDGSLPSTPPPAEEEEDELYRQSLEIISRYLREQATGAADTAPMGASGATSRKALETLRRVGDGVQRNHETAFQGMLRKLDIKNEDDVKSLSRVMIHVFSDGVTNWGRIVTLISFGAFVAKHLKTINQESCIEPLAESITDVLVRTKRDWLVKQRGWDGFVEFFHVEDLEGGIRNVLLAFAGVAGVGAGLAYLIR
Assay: Protein-compound interaction assay (SPR assay, Assay 8)
Recorded conditions: immobilized MBP-MCL-1, 25° C., geometric mean
Each item that follows carries a reported pKd.
Note on pKd: it is the negative log10 of concentration, concentration in mol/L.

Request: Record CCc1nn(C)c2c1-c1c(F)ccc3c(CCCOc4cccc5cc(F)ccc45)c(C(=O)O)n(c13)CCCCOC2 (single isomer, unassigned; enantiomer 1) [Example 39] : what is its pKd with MCL-1 (Homo sapiens (Human), UniProt Q07820, K194A/K197A/R201A)?
Response: 8.82

Request: Try this molecule next: Cc1c2c(nn1C)COCCCCn1c(C(=O)O)c(CCCOc3cccc4ccccc34)c3ccc(F)c-2c31 (racemic) [Example 2]
Response: 7.37

Request: Try this molecule next: CCc1c2c(nn1C)COCCCCn1c(C(=O)O)c(CCCOc3cccc4cc(F)ccc34)c3ccc(F)c-2c31 (single isomer, unassigned; enantiomer 1) [Example 22]
Response: 8.80

###

Each item that follows carries a reported IC50.
Test system: SUDHL5
Assay: Induction of cytotoxicity, SUDHL5 (Assay 6)
Recorded conditions: read-out: IC50 Cytotox SUDHL5 [M] (median), SUDHL5 cells, 5 h, CellTiter-Glo
Number in M, nothing else.

Recorded results for 4 compounds are shown here.
# Compound, Unit text, IC50
rows = [
    ("Cc1c2c(nn1C)COCCCCn1c(C(=O)O)c(CCCOc3cccc4cc(F)ccc34)c3ccc(F)c-2c31 (single isomer, unassigned; enantiomer 2) [Example 14]", "M", "6e-06"),
    ("Cc1c2c(nn1C)COCCCCn1c(C(=O)O)c(CCCOc3cccc4ccccc34)c3ccc(F)c-2c31 (single isomer, unassigned; enantiomer 1) [Example 3]", "M", "7.7e-07"),
    ("Cc1c2c(nn1C)COCCCCn1c(C(=O)O)c(CCCOc3cccc4cc(F)ccc34)c3ccc(F)c-2c31 (single isomer, unassigned; enantiomer 1) [Example 13]", "M", "3.9e-07"),
    ("CCc1c2c(nn1C)COCCCCn1c(C(=O)O)c(CCCOc3cccc4ccccc34)c3ccc(F)c-2c31 (single isomer, unassigned; enantiomer 2) [Example 8]", "M", "2.7e-05"),
]

Request: // query IC50 value for entry CCc1c2c(nn1C)COCCCCn1c(C(=O)O)c(CCCOc3ccc(F)c4ccccc34)c3ccc(F)c-2c31 (single isomer, unassigned; enantiomer 1) [Example 27]
Response: 1e-06

Request: Try this compound next: CCc1c2c(nn1C)COCCCCn1c(C(=O)O)c(CCCOc3cccc4cc(F)ccc34)c3ccc(F)c-2c31 (single isomer, unassigned; enantiomer 1) [Example 22]
Response: 3.3e-07

Request: Try this compound next: CCc1c2c(nn1C)COCCCCn1c(C(=O)O)c(CCCOc3cccc4cc(F)ccc34)c3ccc(F)c-2c31 (single isomer, unassigned; enantiomer 2) [Example 23]
Response: 3.2e-06

Request: Try this compound next: Cc1c2c(nn1C)COCCCCn1c(C(=O)O)c(CCCOc3ccc(F)c4ccccc34)c3ccc(F)c-2c31 (single isomer, unassigned; enantiomer 1) [Example 16]
Response: 1.4e-06

Request: Try this compound next: CCc1c2c(nn1C)COCCCCn1c(C(=O)O)c(CCCOc3cccc4cc(F)ccc34)c3ccc(F)c-2c31 (single isomer, unassigned; enantiomer 2) [Example 25]
Response: 1.2e-05

Request: Try this compound next: CCc1c2c(nn1C)COCCCCn1c(C(=O)O)c(CCCOc3cccc4cc(F)ccc34)c3ccc(F)c-2c31 (single isomer, unassigned; enantiomer 1) [Example 24]
Response: 3.9e-07

###

Tested on: SUDHL10
Assay: Induction of cytotoxicity, SUDHL10 (Assay 6)
Recorded conditions: read-out: IC50 Cytotox SUDHL10 [M] (median), SUDHL10 cells, 5 h, CellTiter-Glo
Each item that follows carries a reported IC50.

Recorded results for 2 compounds are shown here.
# Compound, Measured target, Value observed
rows = [
    ("CCc1nn(C)c2c1-c1c(F)ccc3c(CCCOc4cccc5cc(F)ccc45)c(C(=O)O)n(c13)CCCCOC2 (single isomer, unassigned; enantiomer 1) [Example 39]", "SUDHL10", "1e-06 M"),
    ("CCc1c2c(nn1C)COCCCCn1c(C(=O)O)c(CCCOc3cccc4cc(F)ccc34)c3ccc(F)c-2c31 (single isomer, unassigned; enantiomer 2) [Example 23]", "SUDHL10", "9e-06 M"),
]

We next turn to a different compound, shown below.
Request: // query IC50 value for entry CCc1c2c(nn1C)COCCCCn1c(C(=O)O)c(CCCOc3ccc(F)c4ccccc34)c3ccc(F)c-2c31 (single isomer, unassigned; enantiomer 2) [Example 28]
Response: > 3.3e-05 M

###

Each item that follows carries a reported log10(EC50).
System: SUDHL5
Assay: Induction of caspase-3/7 activity, SUDHL5 (Assay 4)
Format: cell-based
Recorded conditions: Homo sapiens, SU-DHL-5, 3 h, SUDHL5 cells, Caspase-Glo 3/7, median
Record value = log10 of EC50 given in nM.

Recorded results for 8 compounds are shown here.
# Compound, log10(EC50)
records = [
    ("CCc1nn(C)c2c1-c1c(F)ccc3c(CCCOc4cccc5ccccc45)c(C(=O)O)n(c13)C/C=C\\COC2 (racemic)", 3.32),
    ("CCc1c2c(nn1C)CN(C)CCCCn1c(C(=O)O)c(CCCOc3cccc4cc(F)ccc34)c3ccc(F)c-2c31 (racemic)", 2.58),
    ("CCc1c2c(nn1C)CN(C)CCCCn1c(C(=O)O)c(CCCOc3cccc4c3CCCC4)c3ccc(F)c-2c31 (racemic)", 2.45),
    ("CCc1c2c(nn1C)CN(C)CCCCn1c(C(=O)O)c(CCCOc3cccc4c3CCC4)c3ccc(F)c-2c31 (racemic)", 2.36),
    ("CCc1nn(C)c2c1-c1c(F)ccc3c(CCCOc4ccc(F)c5ccccc45)c(C(=O)O)n(c13)CCCCOC2 (racemic)", 3.34),
    ("Cc1c2c(nn1C)COCCCCn1c(C(=O)O)c(CCCOc3cccc4c3CCC4)c3ccc(F)c-2c31 (racemic)", 2.98),
    ("CCc1c2c(nn1C)COCCCCn1c(C(=O)O)c(CCCOc3ccc(F)c4ccccc34)c3ccc(F)c-2c31 (racemic)", 3.18),
    ("CCc1c2c(nn1C)COC/C=C\\Cn1c(C(=O)O)c(CCCOc3cccc4ccccc34)c3ccc(F)c-2c31 (racemic)", 3.00),
]

Request: // query log10(EC50) value for entry CCc1c2c(nn1C)COCCCCn1c(C(=O)O)c(CCCOc3cccc4cc(F)ccc34)c3ccc(F)c-2c31 (racemic)
Response: 2.54

Request: Try this compound next: Cc1nn(C)c2c1-c1c(F)ccc3c(CCCOc4cccc5c4CCC5)c(C(=O)O)n(c13)CCCCOC2 (racemic)
Response: 3.79

Request: Try this compound next: Cc1c2c(nn1C)COC/C=C\Cn1c(C(=O)O)c(CCCOc3cccc4ccccc34)c3ccc(F)c-2c31 (racemic)
Response: 3.15

Request: Try this compound next: CCc1nn(C)c2c1-c1c(F)ccc3c(CCCOc4cccc5c4CCCC5)c(C(=O)O)n(c13)CCCCOC2 (racemic)
Response: 3.20
